# System: BaF3
# Test description: Antiproliferative activity against mouse Ba/F3 cells harbouring FLT3 ITD D835Y mutant assessed as growth inhibition measured after 72 hrs by CellTiter-Glo assay
# Type: functional
# Details: Mus musculus, BaF3
Assay endpoint: GI50 (nM)

Previously resolved entries follow.
| Compound | Readout number |
| --- | --- |
| CCN1CCN(c2ccc(Nc3ncc4scc(-c5cccc(N(C)S(C)(=O)=O)c5)c4n3)cc2)CC1 | 14.3 |
| CCN1CCN(c2ccc(Nc3ncc4scc(-c5ccccn5)c4n3)cc2)CC1 | 14.2 |
| CCN1CCN(c2ccc(Nc3ncc4scc(-c5ccccc5)c4n3)cc2)CC1 | 153 |
| CCN1CCN(c2ccc(Nc3ncc4scc(-c5cccc(N6CCCS6(=O)=O)c5)c4n3)cc2)CC1 | 23.2 |
| CC(C)(C)c1cc(NC(=O)Nc2ccc(-c3cn4c(n3)sc3cc(OCCN5CCOCC5)ccc34)cc2)no1 [QUIZARTINIB] | 12.9 |
| CCN1CCN(c2ccc(Nc3ncc4scc(-c5ccc6cc[nH]c6c5)c4n3)cc2)CC1 | 32.3 |
| CCN1CCN(c2ccc(Nc3ncc4scc(-c5cccnc5)c4n3)cc2)CC1 | 28.2 |
| CS(=O)(=O)Nc1cccc(-c2csc3cnc(Nc4ccc(N5CCNCC5)cc4)nc23)c1 | 11 |

[P] CCc1nc(C(N)=O)c(Nc2ccc(N3CCC(N4CCN(C)CC4)CC3)c(OC)c2)nc1NC1CCOCC1 [GILTERITINIB]
[Q] CCN1CCN(c2ccc(Nc3ncc4scc(-c5cccc(OC)c5)c4n3)cc2)CC1
### Prompt Higher GI50 between P and Q ? Response format: the label of the selected entry.
### Response Q
(Q: 90.7 nM, P: 5 nM)

[I] CCN1CCN(c2ccc(Nc3ncc4scc(-c5cccc(NS(C)(=O)=O)c5)c4n3)cc2)CC1
[II] CNC(=O)c1cc(Oc2ccc(NC(=O)Nc3ccc(Cl)c(C(F)(F)F)c3)cc2)ccn1 [SORAFENIB]
### Prompt Kindly identify the item with the lower GI50 figure among these two: I and II Response format: the label of the selected entry.
### Response I
(I: 5.7 nM, II: 206 nM)

[P] CCN1CCN(c2ccc(Nc3ncc4scc(-c5cccc(S(=O)(=O)NC)c5)c4n3)cc2)CC1
[Q] CCN1CCN(c2ccc(Nc3ncc4scc(-c5cccc([N+](=O)[O-])c5)c4n3)cc2)CC1
### Prompt Higher GI50 between P and Q ? Response format: the label of the selected entry.
### Response Q
(Q: 20.5 nM, P: 13.2 nM)

###

# System: BaF3
# Test description: Antiproliferative activity against mouse Ba/F3 cells harbouring FLT3 ITD mutant assessed as growth inhibition measured after 72 hrs by CellTiter-Glo assay
# Type: functional
# Details: Mus musculus, BaF3
Assay endpoint: GI50 (nM)

Previously resolved entries follow.
| Compound | GI50 [nM] |
| --- | --- |
| CCN1CCN(c2ccc(Nc3ncc4scc(-c5cccc(S(=O)(=O)NC)c5)c4n3)cc2)CC1 | 34.7 |
| CCN1CCN(c2ccc(Nc3ncc4scc(-c5cccc(N(C)S(C)(=O)=O)c5)c4n3)cc2)CC1 | 31.7 |

[A] CCN1CCN(c2ccc(Nc3ncc4scc(-c5ccccc5)c4n3)cc2)CC1
[B] CCN1CCN(c2ccc(Nc3ncc4scc(-c5cccc(OC)c5)c4n3)cc2)CC1
[C] CS(=O)(=O)Nc1cccc(-c2csc3cnc(Nc4ccc(N5CCNCC5)cc4)nc23)c1
### Prompt List from greatest to least GI50. Order the labels as requested and list them.
### Response B, A, C
(B: 1100 nM, A: 10.8 nM, C: 7.4 nM)

###

# Tested on: CYP2C19 (Homo sapiens)
# Sequence (P33261 whole entry): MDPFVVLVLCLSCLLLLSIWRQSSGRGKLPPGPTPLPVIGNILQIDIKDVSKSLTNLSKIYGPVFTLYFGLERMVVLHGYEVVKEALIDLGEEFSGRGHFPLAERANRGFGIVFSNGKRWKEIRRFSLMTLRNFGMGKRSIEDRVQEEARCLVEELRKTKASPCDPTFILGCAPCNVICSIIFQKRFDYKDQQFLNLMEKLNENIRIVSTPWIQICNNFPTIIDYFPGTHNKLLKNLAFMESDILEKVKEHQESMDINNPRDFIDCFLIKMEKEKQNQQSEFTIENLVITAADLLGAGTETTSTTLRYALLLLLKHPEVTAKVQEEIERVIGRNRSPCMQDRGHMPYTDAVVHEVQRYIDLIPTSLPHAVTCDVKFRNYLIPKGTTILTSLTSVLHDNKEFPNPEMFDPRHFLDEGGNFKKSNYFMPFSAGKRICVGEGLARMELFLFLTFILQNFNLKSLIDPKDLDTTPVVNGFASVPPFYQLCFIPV
# Test description: Inhibition of CYP2C19 (unknown origin) at 10 uM relative to control
# Type: ADME
Assay endpoint: inhibition at 10 µM (%)

Previously resolved entries follow.
| Compound | Tested on | Assay endpoint | Endpoint unit | Readout number |
| --- | --- | --- | --- | --- |
| CCN1CCN(c2ccc(Nc3ncc4scc(-c5ccccc5)c4n3)cc2)CC1 | CYP2C19 (Homo sapiens) | inhibition at 10 µM | % | 96.5 |
| CCN1CCN(c2ccc(Nc3ncc4scc(-c5cccc(NS(C)(=O)=O)c5)c4n3)cc2)CC1 | CYP2C19 (Homo sapiens) | inhibition at 10 µM | % | 90.6 |
| CCN1CCN(c2ccc(Nc3ncc4scc(-c5cccc([N+](=O)[O-])c5)c4n3)cc2)CC1 | CYP2C19 (Homo sapiens) | inhibition at 10 µM | % | 82.9 |
| CS(=O)(=O)Nc1cccc(-c2csc3cnc(Nc4ccc(N5CCNCC5)cc4)nc23)c1 | CYP2C19 (Homo sapiens) | inhibition at 10 µM | % | 57.5 |
| CCN1CCN(c2ccc(Nc3ncc4scc(-c5ccc6cc[nH]c6c5)c4n3)cc2)CC1 | CYP2C19 (Homo sapiens) | inhibition at 10 µM | % | 76.5 |
| CCN1CCN(c2ccc(Nc3ncc4scc(-c5cccc(N6CCCS6(=O)=O)c5)c4n3)cc2)CC1 | CYP2C19 (Homo sapiens) | inhibition at 10 µM | % | 75.7 |
| CS(=O)(=O)Nc1cccc(-c2csc3cnc(Nc4ccc(N5CCC(O)CC5)cc4)nc23)c1 | CYP2C19 (Homo sapiens) | inhibition at 10 µM | % | 56.5 |

[A] CCN1CCN(c2ccc(Nc3ncc4scc(-c5cccc(OC)c5)c4n3)cc2)CC1
[B] CNC(=O)c1ccccc1Nc1nc(Nc2ccc(N3CCOCC3)cc2OC)ncc1Cl
### Prompt Kindly identify the item with the lower inhibition at 10 µM figure among these two: A and B Response format: the label of the selected entry.
### Response B
(B: 50.5%, A: 79.4%)

###

# Test system: BaF3
# Test description: Antiproliferative activity against mouse Ba/F3 cells harbouring FLT3 ITD mutant assessed as growth inhibition measured after 72 hrs by CellTiter-Glo assay
# Assay type: functional
# Details: Mus musculus, BaF3
Assay endpoint: GI50 (nM)

Previously resolved entries follow.
| Compound | GI50 (nM) |
| --- | --- |
| CC(C)(C)c1cc(NC(=O)Nc2ccc(-c3cn4c(n3)sc3cc(OCCN5CCOCC5)ccc34)cc2)no1 [QUIZARTINIB] | 0.6 |
| CNC(=O)c1cc(Oc2ccc(NC(=O)Nc3ccc(Cl)c(C(F)(F)F)c3)cc2)ccn1 [SORAFENIB] | 2.8 |
| CCN1CCN(c2ccc(Nc3ncc4scc(-c5cccc([N+](=O)[O-])c5)c4n3)cc2)CC1 | 23.4 |
| CCN1CCN(c2ccc(Nc3ncc4scc(-c5ccc6cc[nH]c6c5)c4n3)cc2)CC1 | 20.8 |
| CCN1CCN(c2ccc(Nc3ncc4scc(-c5ccccn5)c4n3)cc2)CC1 | 9.1 |

[I] CCN1CCN(c2ccc(Nc3ncc4scc(-c5cccc(S(C)(=O)=O)c5)c4n3)cc2)CC1
[II] CCN1CCN(c2ccc(Nc3ncc4scc(-c5cccc(N6CCCS6(=O)=O)c5)c4n3)cc2)CC1
[III] CCN1CCN(c2ccc(Nc3ncc4scc(-c5cccc(NS(C)(=O)=O)c5)c4n3)cc2)CC1
### Prompt Your job: order these 3 records by GI50, ascending. Order the labels as requested and list them.
### Response III, I, II
(III: 4 nM, I: 20.6 nM, II: 46.3 nM)

###

# Tested on: Focal adhesion kinase 1 (Homo sapiens, UniProt Q05397)
# Sequence (Q05397 whole entry): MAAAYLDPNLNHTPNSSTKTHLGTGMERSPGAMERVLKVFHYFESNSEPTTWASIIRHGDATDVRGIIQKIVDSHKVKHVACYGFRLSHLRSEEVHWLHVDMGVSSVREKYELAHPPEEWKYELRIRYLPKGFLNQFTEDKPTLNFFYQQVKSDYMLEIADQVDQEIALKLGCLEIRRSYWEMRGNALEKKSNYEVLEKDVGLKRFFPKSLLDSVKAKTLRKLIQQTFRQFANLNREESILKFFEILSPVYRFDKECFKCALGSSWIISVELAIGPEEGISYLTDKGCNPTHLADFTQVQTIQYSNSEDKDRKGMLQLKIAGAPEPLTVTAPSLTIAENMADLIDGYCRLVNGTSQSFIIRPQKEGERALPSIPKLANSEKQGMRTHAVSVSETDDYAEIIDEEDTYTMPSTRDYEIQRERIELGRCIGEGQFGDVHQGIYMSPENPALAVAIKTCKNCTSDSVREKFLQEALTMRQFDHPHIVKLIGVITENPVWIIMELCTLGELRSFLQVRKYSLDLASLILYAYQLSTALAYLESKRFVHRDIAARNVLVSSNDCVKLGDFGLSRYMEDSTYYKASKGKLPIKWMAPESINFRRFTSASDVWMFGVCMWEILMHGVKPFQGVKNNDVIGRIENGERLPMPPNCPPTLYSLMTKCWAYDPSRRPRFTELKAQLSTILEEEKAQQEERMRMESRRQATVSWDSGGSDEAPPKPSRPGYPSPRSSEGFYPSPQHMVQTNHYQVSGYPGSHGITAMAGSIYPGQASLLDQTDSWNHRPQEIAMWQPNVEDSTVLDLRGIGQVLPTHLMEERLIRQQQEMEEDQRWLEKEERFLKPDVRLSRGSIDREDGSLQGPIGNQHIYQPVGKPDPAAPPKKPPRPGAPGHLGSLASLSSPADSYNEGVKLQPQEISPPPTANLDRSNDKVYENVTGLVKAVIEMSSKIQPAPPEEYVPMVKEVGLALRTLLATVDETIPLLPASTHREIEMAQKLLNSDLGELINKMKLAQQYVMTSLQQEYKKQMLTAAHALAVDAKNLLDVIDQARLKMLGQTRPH
# Test description: Inhibition of recombinant FAK (unknown origin) by radiometric kinase assay
pIC50: −log10 of the molar value.
Assay endpoint: pIC50

Previously resolved entries follow.
| Compound | Readout number |
| --- | --- |
| CCN1CCN(c2cccc(Nc3ncc4scc(-c5cccc(NS(C)(=O)=O)c5)c4n3)c2)CC1 | 7.89 |
| CS(=O)(=O)Nc1cccc(-c2csc3cnc(Nc4ccc(N5CCC(O)CC5)cc4)nc23)c1 | 7.80 |
| CCN1CCN(c2ccc(Nc3ncc4scc(-c5cccc([N+](=O)[O-])c5)c4n3)cc2)CC1 | 7.68 |

[1] CCN1CCN(c2ccc(Nc3ncc4scc(-c5cccc(OC)c5)c4n3)cc2)CC1
[2] CCOC(=O)c1ccccc1-c1csc2cnc(Nc3ccc(N4CCN(CC)CC4)cc3)nc12
### Prompt Kindly identify the item with the lower pIC50 figure among these two: 1 and 2 Response format: the label of the selected entry.
### Response 2

[1] COc1cc(Nc2ncc3scc(-c4ccccn4)c3n2)cc(OC)c1OC
[2] CCN1CCN(c2ccc(Nc3ncc4scc(-c5cccc(N6CCCS6(=O)=O)c5)c4n3)cc2)CC1
[3] CCN1CCN(c2ccc(Nc3ncc4scc(-c5ccccc5S(C)(=O)=O)c4n3)cc2)CC1
[4] CCN1CCN(c2ccc(Nc3ncc4scc(-c5cccc(S(=O)(=O)NC)c5)c4n3)cc2)CC1
### Prompt List from greatest to least pIC50. Order the labels as requested and list them.
### Response 4, 1, 2, 3
(4: 7.96, 1: 7.74, 2: 7.48, 3: 6.71)

[1] CCN1CCN(c2ccc(Nc3ncc4scc(-c5cccc(S(C)(=O)=O)c5)c4n3)cc2)CC1
[2] CCN1CCN(c2ccc(Nc3ncc4scc(-c5cnc6ccccc6c5)c4n3)cc2)CC1
### Prompt Kindly identify the item with the lower pIC50 figure among these two: 1 and 2 Response format: the label of the selected entry.
### Response 2

[I] CCN1CCN(c2ccc(Nc3ncc4scc(-c5cccnc5)c4n3)cc2)CC1
[II] CCN1CCN(c2ccc(Nc3ncc4scc(-c5ccc6ccccc6c5)c4n3)cc2)CC1
### Prompt Kindly identify the item with the lower pIC50 figure among these two: I and II Response format: the label of the selected entry.
### Response II
